These entries and their values trace back to patent US11130803B2.

Target: T1, hLTBP3-proTGFβ1 (Homo sapiens, UniProt P01137)
T1 construct: made in house; host or cells: Expi293F cells, transient co-transfection
T1 sequence (P01137 30-390): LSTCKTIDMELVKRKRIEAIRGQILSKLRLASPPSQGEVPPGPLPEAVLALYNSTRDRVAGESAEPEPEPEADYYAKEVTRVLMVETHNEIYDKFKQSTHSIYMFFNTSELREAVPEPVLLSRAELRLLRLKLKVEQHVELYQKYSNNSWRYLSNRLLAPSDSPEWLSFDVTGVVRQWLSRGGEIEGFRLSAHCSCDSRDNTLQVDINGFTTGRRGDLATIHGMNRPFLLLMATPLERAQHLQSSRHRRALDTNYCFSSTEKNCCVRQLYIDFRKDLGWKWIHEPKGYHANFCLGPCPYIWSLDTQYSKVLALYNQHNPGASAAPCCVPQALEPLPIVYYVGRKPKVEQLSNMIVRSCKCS
T1 sequence (Q9NS15 866-1039 partner limits assumed): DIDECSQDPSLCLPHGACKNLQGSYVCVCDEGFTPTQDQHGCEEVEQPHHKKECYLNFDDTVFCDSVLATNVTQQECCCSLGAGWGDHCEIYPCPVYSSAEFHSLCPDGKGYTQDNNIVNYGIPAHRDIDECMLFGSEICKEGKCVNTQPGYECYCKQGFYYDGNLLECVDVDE
Experiment: MSD-SET solution equilibrium titration binding
Settings: MSD-SET at equilibrium, hIgG4, human complex; in M
Quantity Name: (C) hLTBP3, Matrix-associated proTGFβ1 KD
Just the number.

Inquiry: Sample Ab19: monoclonal antibody; VH SEQ ID NO: 250, VL SEQ ID NO: 241 (antibody, V domains shown) VH: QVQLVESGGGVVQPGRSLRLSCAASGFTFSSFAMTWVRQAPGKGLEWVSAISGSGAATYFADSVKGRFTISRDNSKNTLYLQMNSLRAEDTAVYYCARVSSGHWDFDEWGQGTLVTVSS VL: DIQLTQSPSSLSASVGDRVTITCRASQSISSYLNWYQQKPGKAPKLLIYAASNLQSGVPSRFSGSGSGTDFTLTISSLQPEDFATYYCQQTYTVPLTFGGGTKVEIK — what was its (C) hLTBP3, Matrix-associated proTGFβ1 KD?
Reply text: 2.70E−09

Inquiry: Sample Ab30: monoclonal antibody; VH SEQ ID NO: 138, VL SEQ ID NO: 15 (antibody, V domains shown) VH: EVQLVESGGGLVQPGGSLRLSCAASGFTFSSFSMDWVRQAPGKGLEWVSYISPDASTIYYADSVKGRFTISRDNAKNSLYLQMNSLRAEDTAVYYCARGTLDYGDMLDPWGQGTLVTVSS VL: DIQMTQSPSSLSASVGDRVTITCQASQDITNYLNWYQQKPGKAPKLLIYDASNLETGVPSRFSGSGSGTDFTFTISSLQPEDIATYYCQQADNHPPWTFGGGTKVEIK — what was its (C) hLTBP3, Matrix-associated proTGFβ1 KD?
Reply text: 2.60E−11
